// UniProtKB P08912 pKi records
Sequence (P08912 whole entry): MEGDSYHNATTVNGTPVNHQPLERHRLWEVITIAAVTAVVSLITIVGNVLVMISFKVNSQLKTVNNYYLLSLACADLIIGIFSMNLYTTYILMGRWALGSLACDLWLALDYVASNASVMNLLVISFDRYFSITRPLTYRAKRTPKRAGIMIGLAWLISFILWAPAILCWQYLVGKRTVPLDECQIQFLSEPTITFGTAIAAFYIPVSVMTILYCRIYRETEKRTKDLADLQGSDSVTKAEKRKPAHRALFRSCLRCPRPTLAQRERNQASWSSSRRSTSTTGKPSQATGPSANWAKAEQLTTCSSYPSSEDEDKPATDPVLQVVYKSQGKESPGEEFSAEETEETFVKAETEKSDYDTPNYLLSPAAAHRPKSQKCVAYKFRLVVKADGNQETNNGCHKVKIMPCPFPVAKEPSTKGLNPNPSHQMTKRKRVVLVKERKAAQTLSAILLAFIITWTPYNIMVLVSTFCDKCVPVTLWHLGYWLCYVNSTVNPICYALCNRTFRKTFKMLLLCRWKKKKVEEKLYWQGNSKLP
Lab note — pKi values are minus log10 of concentrations in M.

Answered cases to consult:
{"compound": "O=C(CCCN1CCC(O)(c2ccc(Br)cc2)CC1)c1ccc(F)cc1", "pKi": 5.32}
{"compound": "CN1CCN(C2=Nc3ccccc3Oc3ccc(Cl)cc32)CC1", "pKi": 6.62}
{"compound": "CN1CCN(C2=Cc3cc(Cl)ccc3C(=CC#N)c3ccccc32)CC1", "pKi": 5.96}
{"compound": "CN(C)CC/C=C1\\c2ccccc2Sc2ccc(Cl)cc21", "pKi": 7.60}
{"compound": "CN1CCCCC1CCN1c2ccccc2Sc2ccc([S+](C)[O-])cc21 (stereo unspecified)", "pKi": 7.22}

Field pKi (UniProtKB P08912), entry OC(CCN1CCCCC1)(c1ccccc1)C1CC2C=CC1C2 (stereo unspecified) : 8.20
